Origin of values: ChEMBL document CHEMBL3227967

# Procedure details: Lipophilicity, log P of the compound in 0.1 N HCl solution
# Format: physicochemical
# Assay setup: 0.1 N HCl solution; read-out: logP
Value kind: logP
Please give the numeric answer without any surrounding text.

Query: Quote logP reported for CC(C)(C)c1cc(C(O)CC2CCCCN2)c2ccccc2n1 (centres undefined) please.
Reply: 2.03

Query: Give the reported value of logP for this record: CN(C)CC(O)c1cc2ccccc2c2ccccc12 (centres undefined)
Reply: 1.08

Query: # return recorded logP for entry CCCCN(CCCC)CC(O)c1ccc2cc(OC)c(Cl)cc2n1 (centres undefined)
Reply: 1.73

Others:
Query: Please give the documented logP of OC(CC1CC2CCN1CC2)c1cc2ccccc2c2cc(Br)ccc12 (centres undefined)
Reply: 2.98

Query: # return recorded logP for entry CCCCN(CCCC)CC(O)c1cccc2cc(Cl)ccc12 (centres undefined)
Reply: 2.19

Query: Please list logP recorded for the compound CC(C)c1cc(C(O)CC2CCCCN2)c2ccccc2n1 (centres undefined)
Reply: 1.58

Query: Item CCC1C[N+]2(CC(O)c3ccnc4ccc(OC)cc34)CCC1CC2 (centres undefined) : provide logP
Reply: 2.31

Query: Quick one: give measured logP for CCCCN(CCCC)CC(O)c1c(Cl)cc(Cl)c2ncccc12 (centres undefined)
Reply: 2.46

Query: Provide logP value for the following compound: CCNCC(O)c1cc2ccccc2c2ccccc12 (centres undefined)
Reply: 1.42

* * *

This section presents molecules with their documented logP values.
# Procedure details: Lipophilicity, log P of the compound in 0.1 N HCl solution
# Format: physicochemical
# Assay setup: 0.1 N HCl solution; read-out: logP
# output: bare number, no unit

Query: Supply logP value. Item: OC(c1cc(-c2ccccc2)nc2ccccc12)C1CCCCN1 (configuration not stated)
Reply: 1.58

Query: // fetch logP given entry OC(CN1C=CN(c2ccccc2)C=C1)c1cc(-c2ccc(Cl)cc2)nc2c(Cl)cc(Cl)cc12 (configuration not stated)
Reply: 6.11

Query: Determine from records and report logP for CCCCN(CCCC)CC(O)c1ccc(Cl)c2ccccc12 (configuration not stated)
Reply: 2.19

Query: Name the recorded logP of the item CCCCCN(CCCCC)CC(O)c1cc(-c2ccccc2)nc2ccccc12 (configuration not stated) in your answer.
Reply: 3.58

Query: Determine its reported logP: CCCCCCN(CCCCCC)CC(O)c1ccc2cc(Cl)cc(Cl)c2n1 (configuration not stated)
Reply: 4.4

Query: For the molecule CCN(CC)CC(O)c1cc(Cl)cc2cccnc12 (configuration not stated) , report logP.
Reply: 0.12

* * *

# Procedure details: Lipophilicity, log P of the compound in 0.1 N HCl solution
# Type: physicochemical
# Assay setup: 0.1 N HCl solution; read-out: logP
Note to self: use fulfilled only for logP readings below 4; a reading exactly at 4 still gets not fulfilled.

Query: Does CN(C)CC(O)c1cc(-c2ccccc2)nc(-c2ccccc2)c1 (stereo not given) have logP strictly under 4?
Reply: fulfilled

Query: Dear colleague, could you confirm whether logP of CCCCN(CCCC)CC(O)c1cc(-c2ccc(Cl)cc2)c2cc(-c3ccccc3)ccc2n1 (stereo not given) falls below 4? Thanks.
Reply: not fulfilled

Query: Strictly below 4: is that where logP of CCCNCC(O)c1cc2ccccc2c2ccccc12 (stereo not given) sits?
Reply: fulfilled

Query: Lab note: logP threshold 4. Does this compound come in strictly under it? OC(CC1CCCCN1)C1CC=Nc2c1cccc2C(F)(F)F (stereo not given)
Reply: fulfilled

Query: I wonder whether CCCCN(CCCC)CC(O)c1c(C)c(-c2ccc(C)cc2C)nc2c1ccc1ccccc12 (stereo not given) has logP below 4. Can you tell?
Reply: not fulfilled

Query: Is the reported logP for CNCC(O)c1cc(-c2ccccc2)nc(-c2ccccc2)c1 (stereo not given) strictly below 4?
Reply: fulfilled

Query: Find out if reported logP for CCN1C=CN(CC(O)c2cc(-c3ccc(F)cc3)nc3cc(F)ccc23)C=C1 (stereo not given) is less than 4
Reply: fulfilled

Query: Item CCCCNCC(O)c1cc(-c2ccccc2)nc(-c2ccccc2)c1 (stereo not given) : logP beneath 4, strictly?
Reply: fulfilled

Query: Is logP of OC(CN1CCCCCC1)c1cc(Cl)c2nc(-c3ccccc3)ccc2c1 (stereo not given) strictly below 4?
Reply: fulfilled

Query: Given the entry OC(CN1C=COC=C1)c1cc(-c2ccc(F)cc2)nc2cc(F)ccc12 (stereo not given) , would its reported logP be below 4?
Reply: fulfilled

Others:
Query: Is 4 strictly greater than the compound's reported logP? compound: CCCN(CCC)CC(O)c1cc(-c2ccccc2)nc(-c2ccccc2)c1 (stereo not given)
Reply: fulfilled

Query: In the record for CCCCCCCN(CCCCCCC)CC(O)c1cc2ccccc2c2ccccc12 (stereo not given) , is logP less than 4?
Reply: not fulfilled

Query: Consider O=C(Nc1cccc(C(F)(F)F)c1)c1cc(C(O)CC2CCCCN2)c2cccc(C(F)(F)F)c2n1 (stereo not given) . Does its logP lie strictly below 4?
Reply: fulfilled

Query: Report whether reported logP is lower than 4 (strictly) for CCCCCN(CCCCC)CC(O)c1cc(-c2ccccc2)nc(-c2ccccc2)c1 (stereo not given)
Reply: not fulfilled

Query: Consider the compound OC(CNC12CC3CC(CC(C3)C1)C2)c1cc(-c2ccc(F)cc2)nc2cc(F)ccc12 (stereo not given) . Is its logP strictly less than 4?
Reply: fulfilled

Query: Threshold test, logP < 4: OC(CN1CCCCCC1)c1cccc2ccc(-c3ccccc3)nc12 (stereo not given)
Reply: fulfilled

Query: Dear colleague, could you confirm whether logP of CCC1C[N+]2(c3ccnc4ccc(OC(C)CO)cc34)CCC1CC2 (stereo not given) falls below 4? Thanks.
Reply: fulfilled

* * *

# Procedure details: Lipophilicity, log P of the compound in 0.1 N HCl solution
# Assay type: physicochemical
# Assay setup: 0.1 N HCl solution; read-out: logP
Value kind: logP
Just the number, please, no unit attached.

Query: Indicate the recorded logP value for this compound: CCCCN(CCCC)CC(O)c1cc2ccccc2c2ccccc12 (stereo unspecified)
Reply: 3

Query: Give the value of logP reported for the following: CCCCCCCN(CCCCCCC)CC(O)c1cccc2ccc3c4ccccc4cc(Br)c3c12 (stereo unspecified)
Reply: 7.69

Query: State its logP for this compound: N#CCCN(CC(O)c1cc2ccccc2c2ccccc12)C1CCCCC1 (stereo unspecified)
Reply: 2.27

Query: For CCCCCCN(CCCCCC)CC(O)c1cnc2cc(Cl)ccc2c1Cl (stereo unspecified) , write its logP.
Reply: 5.4

Query: Complete the entry with logP for CCCCCN(CCCCC)CC(O)c1cc2ccccc2c2ccccc12 (stereo unspecified)
Reply: 4.01

Query: Retrieve logP measured for CCCCN(CCCC)CC(O)c1cnc2c(C(F)(F)F)cccc2c1 (stereo unspecified) and print it.
Reply: 1.92

Query: Give reported logP value for CCCCN(CCCC)CC(O)c1cc(-c2ccccc2)nc2ccccc12 (stereo unspecified)
Reply: 2.57

Query: // Input: CCCCCCCN(CCCCCCC)CC(O)c1cc2ccccc2c2cccnc12 (stereo unspecified) . Output its logP only.
Reply: 4.03

Query: Give logP for the following compound: CCCCCCN(CCCCCC)CC(O)c1cc(-c2ccccc2)nc2ccccc12 (stereo unspecified)
Reply: 4.51

Query: State its logP for this compound: CNCC(O)c1cc2ccccc2c2ccccc12 (stereo unspecified)
Reply: 0.98

# next compound below
Query: Given OC(CC1CCCCN1)c1cc(C2CCCCC2)nc2ccccc12 (stereo unspecified) , respond with its logP.
Reply: 2.56

* * *

# Procedure details: Lipophilicity, log P of the compound in 0.1 N HCl solution
# Type: physicochemical
# Assay setup: 0.1 N HCl solution; read-out: logP
Threshold-based label: logP under 4 gives 1, logP not under 4 gives -1.

Query: Say whether its logP is strictly beneath 4. Entry: OC(CN1C=COC=C1)c1cc(-c2ccc(Cl)cc2)nc2cc(Cl)ccc12 (stereo not drawn)
Reply: 1

Query: Strictly below 4: is that where logP of OC(CN1C=CN(c2ccccc2)C=C1)c1cc(-c2ccc(Cl)cc2)nc2cc(Cl)ccc12 (stereo not drawn) sits?
Reply: -1

Others:
Query: Is logP strictly under 4 for the entry CCCCCCCN(CCCCCCC)CC(O)c1cc2ccc(Br)cc2c2cccnc12 (stereo not drawn) ?
Reply: -1

Query: Report whether reported logP is lower than 4 (strictly) for CCCCCCCN(CCCCCCC)CC(O)c1cc(-c2ccccc2)nc(-c2ccccc2)c1 (stereo not drawn)
Reply: -1

Query: Answer whether the compound CCCCCCN(CCCCCC)CC(O)c1ccc(Cl)c2ncccc12 (stereo not drawn) has logP strictly less than 4
Reply: 1

Query: Is the reported logP for COc1ccc2nccc(C(O)CC3CCC(/C=C/Br)CN3)c2c1 (stereo not drawn) strictly below 4?
Reply: 1

Query: logP strictly < 4 for this compound? CCCCN(CCCC)CC(O)c1cc(-c2cccc(O)c2)nc2c(Cl)cc(Cl)cc12 (stereo not drawn)
Reply: 1

* * *

# Procedure details: Lipophilicity, log P of the compound in 0.1 N HCl solution
# Assay type: physicochemical
# Assay setup: 0.1 N HCl solution; read-out: logP
Recorded logP for the following molecules
Quick one: just the number, no unit, thanks!

Query: Give a short answer stating reported logP for OC(CC1CCCCN1)c1ccnc2ccccc12 (stereo not given) .
Reply: 0.05

Query: In one line, give reported logP of the entry OC(CN1CCCCC1)c1cc2ccccc2c2sccc12 (stereo not given) .
Reply: 1.73

Query: Report measured logP; entry is CCCCN(CCCC)CC(O)c1ccc(Cl)c2c(C)ccnc12 (stereo not given)
Reply: 2.31

Query: Give the value of logP reported for the following: CCCCCCCN(CCCCCCC)CC(O)c1ccc(Cl)c2c(C)ccnc12 (stereo not given)
Reply: 5.25

Query: Given the molecule OC(CN1CCCCC1)c1c2ccccc2nc2c1ccc1ccccc12 (stereo not given) , write its reported logP.
Reply: 3.51

Query: State, in one line, measured logP of CCN(CC)CC(O)c1cc(-c2ccccc2)nc(-c2ccccc2)c1 (stereo not given)
Reply: 2.54

Query: Annotate the molecule Cc1cc(C(O)CN2CCCCCC2)cc2ccc(-c3ccccc3)nc12 (stereo not given) with its measured logP.
Reply: 3.47

Query: Please look at this molecule and report its logP: CCCN(CCC)CC(O)c1cc(-c2ccccc2)nc2ccccc12 (stereo not given)
Reply: 1.69

Next:
Query: Answer with the recorded logP for the molecule listed here: CCCCCCCN(CCCCCCC)CC(O)c1cc2c(Cl)cc(Cl)cc2c2ccc(C)nc12 (stereo not given)
Reply: 6.01

Query: Please report the measured logP for CCCCCCN(CCCCCC)CC(O)c1cc(-c2ccccc2)nc(-c2ccccc2)c1 (stereo not given)
Reply: 6.11

Query: State its logP for this molecule: CCN(CC)CC(O)c1cc(-c2ccccc2)nc2ccccc12 (stereo not given)
Reply: 0.94

Query: Give the measured logP for Cc1ccc(Oc2cc(C(O)CC3CCCCN3)c3cc(Cl)ccc3n2)cc1 (stereo not given)
Reply: 3.4

Query: Name the recorded logP of the molecule listed here: CCCCCCCN(CCCCCCC)CC(O)c1cc(-c2ccccc2)nc2ccccc12 (stereo not given)
Reply: 5.51

Query: Please report logP for the following molecule: CCCCN(CCCC)CC(O)c1cc(Cl)cc2cccnc12 (stereo not given)
Reply: 1.75

Query: Answer with reported logP of CCCCCCN(CCCCCC)CC(O)c1cc2ccccc2c2ccccc12 (stereo not given)
Reply: 4.94
